Biological target: ATM (Homo sapiens (Human))
Sequence (Q13315 whole entry): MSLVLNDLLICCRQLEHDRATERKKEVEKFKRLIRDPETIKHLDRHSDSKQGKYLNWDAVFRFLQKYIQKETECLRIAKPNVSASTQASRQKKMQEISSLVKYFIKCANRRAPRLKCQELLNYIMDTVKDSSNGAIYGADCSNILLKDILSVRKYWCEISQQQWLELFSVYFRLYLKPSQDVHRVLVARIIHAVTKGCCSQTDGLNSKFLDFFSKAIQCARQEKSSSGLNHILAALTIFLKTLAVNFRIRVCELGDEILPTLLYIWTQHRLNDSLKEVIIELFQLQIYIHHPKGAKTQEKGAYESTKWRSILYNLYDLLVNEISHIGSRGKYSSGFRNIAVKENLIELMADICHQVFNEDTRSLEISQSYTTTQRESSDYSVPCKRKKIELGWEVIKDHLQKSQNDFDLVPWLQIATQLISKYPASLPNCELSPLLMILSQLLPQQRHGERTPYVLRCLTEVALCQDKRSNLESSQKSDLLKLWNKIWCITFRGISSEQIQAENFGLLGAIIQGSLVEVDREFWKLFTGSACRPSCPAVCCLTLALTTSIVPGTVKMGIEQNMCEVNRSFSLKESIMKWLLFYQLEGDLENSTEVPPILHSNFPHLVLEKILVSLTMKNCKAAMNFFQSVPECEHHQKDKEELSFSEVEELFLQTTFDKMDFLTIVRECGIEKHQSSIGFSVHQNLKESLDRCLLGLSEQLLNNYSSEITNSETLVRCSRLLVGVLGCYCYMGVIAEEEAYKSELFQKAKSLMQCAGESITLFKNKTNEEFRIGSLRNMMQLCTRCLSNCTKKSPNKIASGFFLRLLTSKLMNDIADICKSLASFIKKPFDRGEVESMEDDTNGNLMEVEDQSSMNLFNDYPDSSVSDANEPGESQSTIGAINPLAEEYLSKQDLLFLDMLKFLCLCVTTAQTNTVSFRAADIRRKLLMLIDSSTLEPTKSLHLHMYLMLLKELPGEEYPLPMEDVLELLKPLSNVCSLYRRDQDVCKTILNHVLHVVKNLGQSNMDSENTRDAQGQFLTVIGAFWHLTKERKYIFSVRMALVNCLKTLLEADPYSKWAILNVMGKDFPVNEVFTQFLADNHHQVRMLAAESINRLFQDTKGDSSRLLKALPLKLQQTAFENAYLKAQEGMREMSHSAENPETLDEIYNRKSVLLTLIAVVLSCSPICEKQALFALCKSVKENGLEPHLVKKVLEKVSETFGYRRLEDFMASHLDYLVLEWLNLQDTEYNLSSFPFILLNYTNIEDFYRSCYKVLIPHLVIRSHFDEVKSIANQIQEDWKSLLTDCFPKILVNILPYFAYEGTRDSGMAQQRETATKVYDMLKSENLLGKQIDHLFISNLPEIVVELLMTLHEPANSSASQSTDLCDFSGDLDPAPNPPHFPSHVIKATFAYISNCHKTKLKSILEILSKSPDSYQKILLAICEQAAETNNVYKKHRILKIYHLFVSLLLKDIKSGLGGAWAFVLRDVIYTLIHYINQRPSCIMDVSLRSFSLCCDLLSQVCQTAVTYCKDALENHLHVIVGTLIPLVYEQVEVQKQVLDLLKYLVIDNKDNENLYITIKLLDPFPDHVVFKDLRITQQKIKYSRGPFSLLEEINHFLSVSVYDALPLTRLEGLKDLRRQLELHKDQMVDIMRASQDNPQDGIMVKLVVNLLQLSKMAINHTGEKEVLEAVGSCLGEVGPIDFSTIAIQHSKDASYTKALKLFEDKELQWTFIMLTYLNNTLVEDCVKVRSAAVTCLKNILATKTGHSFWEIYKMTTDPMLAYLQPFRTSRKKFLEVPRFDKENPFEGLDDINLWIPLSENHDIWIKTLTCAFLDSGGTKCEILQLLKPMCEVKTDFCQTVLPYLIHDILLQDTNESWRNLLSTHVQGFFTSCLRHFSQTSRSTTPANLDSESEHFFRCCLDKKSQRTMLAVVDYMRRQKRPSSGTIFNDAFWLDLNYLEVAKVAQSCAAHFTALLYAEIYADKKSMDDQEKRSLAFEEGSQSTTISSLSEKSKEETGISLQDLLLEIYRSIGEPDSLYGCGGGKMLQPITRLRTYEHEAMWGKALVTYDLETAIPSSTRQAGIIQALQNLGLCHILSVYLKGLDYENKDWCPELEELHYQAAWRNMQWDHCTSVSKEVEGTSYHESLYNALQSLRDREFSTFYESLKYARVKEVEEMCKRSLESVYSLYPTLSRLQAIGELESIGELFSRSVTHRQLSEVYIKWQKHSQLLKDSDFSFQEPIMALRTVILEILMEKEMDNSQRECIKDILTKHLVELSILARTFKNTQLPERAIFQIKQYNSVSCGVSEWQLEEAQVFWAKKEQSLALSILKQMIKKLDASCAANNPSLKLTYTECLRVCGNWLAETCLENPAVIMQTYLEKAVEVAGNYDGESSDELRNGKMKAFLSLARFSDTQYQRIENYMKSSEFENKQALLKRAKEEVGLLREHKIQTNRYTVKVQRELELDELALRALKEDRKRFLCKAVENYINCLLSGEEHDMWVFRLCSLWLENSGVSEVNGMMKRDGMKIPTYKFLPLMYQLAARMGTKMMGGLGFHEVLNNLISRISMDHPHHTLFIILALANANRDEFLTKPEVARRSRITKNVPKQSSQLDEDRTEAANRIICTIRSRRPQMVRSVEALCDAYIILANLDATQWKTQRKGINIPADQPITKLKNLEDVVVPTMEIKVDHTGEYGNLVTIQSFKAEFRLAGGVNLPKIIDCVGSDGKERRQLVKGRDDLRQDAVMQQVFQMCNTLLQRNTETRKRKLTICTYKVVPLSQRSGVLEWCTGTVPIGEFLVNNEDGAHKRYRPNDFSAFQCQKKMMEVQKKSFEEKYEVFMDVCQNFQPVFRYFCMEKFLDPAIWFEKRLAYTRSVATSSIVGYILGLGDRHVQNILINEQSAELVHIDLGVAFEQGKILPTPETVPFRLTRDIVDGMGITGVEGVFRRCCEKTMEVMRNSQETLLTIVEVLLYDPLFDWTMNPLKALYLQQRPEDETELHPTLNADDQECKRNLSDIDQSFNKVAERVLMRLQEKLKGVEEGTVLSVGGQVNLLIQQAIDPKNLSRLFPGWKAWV
Assay: ATM in Cell Western Assay (pKAP1 in etoposide-treated MCF-7 cells)
Format: cell-based
Conditions: pKAP1 in etoposide-treated MCF-7 cells
Experimental: Assay of Compounds ATM and DNA-PK Inhibition ATM in Cell Western Assay: Next day, add corresponding concentration of compounds using pin tool (Echo 550), the final top concentration is 1 μM, 3-fold series dilution, total 10 doses. Then add etoposide (Sigma, #E1383) to a final concentration of 100 μM. Incubate at 37° C. for 1 hr. Fix cells by adding 25 μL of fixing solution (8% paraformaldehyde) for 20 minutes at ambient temperature. […]
Where a name gives a salt, the structure may show the parent alone.
QUANTITY KIND: IC50

Take a look at these entries with their results.
[
  {
    "COMPOUND": "COc1cc([C@H]2C[C@@]3(C2)C(=O)N(C)c2cnc4cc(F)c(-c5cnc(OCCNC(C)C)c(NS(C)(=O)=O)c5)cc4c23)ccn1",
    "READING": "> 100 nM"
  },
  {
    "COMPOUND": "CO[C@H]1C[C@]2(C1)C(=O)N(C)c1cnc3cc(F)c(-c4cnc(OCCNC(C)C)c(NS(C)(=O)=O)c4)cc3c12",
    "READING": "1 to 100 nM"
  },
  {
    "COMPOUND": "CCN(C)S(=O)(=O)Nc1cc(-c2ccc3ncc4c(c3c2)C2(CCC2)C(=O)N4C)cnc1N1CC(N(C)C)C1",
    "READING": "1 to 100 nM"
  },
  {
    "COMPOUND": "CC(C)NCCOc1ncc(-c2cc3c(cc2F)ncc2c3[C@]3(C[C@H](c4ccc(F)cc4)C3)C(=O)N2C)cc1NS(C)(=O)=O",
    "READING": "1 to 100 nM"
  },
  {
    "COMPOUND": "CC(C)NCCOc1ncc(-c2cc3c(cc2F)ncc2c3[C@]3(C[C@@H](c4ccncc4)C3)C(=O)N2C)cc1NS(C)(=O)=O",
    "READING": "> 100 nM"
  }
]

Value lookup for IC50; key = CCS(=O)(=O)Nc1cc(-c2cc3c4c(cnc3cc2F)N(C)C(=O)C42CN(C(C)C)C2)cnc1OCCNC(C)C
1 to 100 nM

Using the record for CC(C)NCCOc1ncc(-c2cc3c4c(cnc3cc2F)N(C)C(=O)C42CCC2)cc1NS(=O)(=O)CCN(C)C [Example 375, hydrochloride] , report its IC50.
1 to 100 nM
